- Target Desc: hexahistidine tagged MDM2 (18–125) (Homo sapiens)
- Construct: DNA encoding residues Q18 to N125 of HDM2; made in house; host or cells: E. coli BL21(DE3)
- Sequence (Q00987 18-125): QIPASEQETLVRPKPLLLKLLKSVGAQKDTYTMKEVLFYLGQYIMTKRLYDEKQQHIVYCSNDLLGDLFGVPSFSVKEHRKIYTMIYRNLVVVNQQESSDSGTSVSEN
- Run Description: Isothermal titration calorimetry (ITC) of ligands against MDM2
- Format: binding
- Measurement Context: 293 K (20°C), PBS pH 7.4, 0.05% TWEEN20, 1% DMSO, 10 or 20 µM MDM2 in cell, single-site binding model
pKd: −log10 of the molar value. Ends that are not written are not given here.

| Substance | Target Desc | pKd |
| --- | --- | --- |
| MPRFMDYWEGLN-NH2 [12/1] | hexahistidine tagged MDM2 (18–125) (Homo sapiens) | 6.62 |
| MPRFMDYWEGLA-NH2 [12/1Ala] | hexahistidine tagged MDM2 (18–125) (Homo sapiens) | 7.33 |
| MPRFMDYWEGLT-NH2 [12/1Thr] | hexahistidine tagged MDM2 (18–125) (Homo sapiens) | 7.64 |
| MPRFMDYWEGLP-NH2 [12/1Pro] | hexahistidine tagged MDM2 (18–125) (Homo sapiens) | 6.67 |

---

- Target Desc: hexahistidine tagged MDM2 (18–125) (Homo sapiens)
- Construct: DNA encoding residues Q18 to N125 of HDM2
- Run Description: Isothermal titration calorimetry (ITC) of ligands against MDM2
- Measurement Context: 293 K (20°C), PBS pH 7.4, 0.05% TWEEN20, 1% DMSO, 10 or 20 µM MDM2 in cell, single-site binding model
pKd: −log10 of the molar value.

| Chemical String | pKd |
| --- | --- |
| CC(C)C[C@H](NC(=O)[C@H](CC(C)C)NC(=O)[C@H](CCCCN)NC(=O)[C@H](Cc1c[nH]c2ccccc12)NC(=O)[C@H](CC(C)C)NC(=O)[C@H](CC(=O)O)NC(=O)[C@H](CO)NC(=O)[C@H](Cc1ccccc1)NC(=O)[C@@H](NC(=O)[C@H](CCC(=O)O)NC(=O)[C@@H](N)CCC(N)=O)[C@@H](C)O)C(=O)N[C@@H](CO)C(N)=O | 7.12 |
| CC(C)C[C@H](NC(=O)[C@H](CC(C)C)NC(=O)[C@H](CCCCN)NC(=O)[C@H](Cc1c[nH]c2ccccc12)NC(=O)[C@H](CC(C)C)NC(=O)[C@H](CC(=O)O)NC(=O)[C@H](CO)NC(=O)[C@H](Cc1ccccc1)NC(=O)[C@@H](NC(=O)[C@H](CCC(=O)O)NC(=O)[C@@H](N)CCC(N)=O)[C@@H](C)O)C(=O)N[C@@H](CC(N)=O)C(N)=O | 6.77 |
| CSCC[C@H](NC(=O)[C@H](Cc1ccccc1)NC(=O)[C@H](CCCNC(=N)N)NC(=O)[C@@H]1CCCN1C(=O)[C@@H](N)CCSC)C(=O)N[C@@H](CC(=O)O)C(=O)N[C@@H](Cc1ccc(O)cc1)C(=O)N[C@@H](Cc1c[nH]c2ccccc12)C(=O)N[C@@H](CCC(=O)O)C(=O)NCC(=O)N[C@@H](CC(C)C)C(=O)N[C@@H](CO)C(N)=O | 7.73 |
| CC(C)C[C@H](NC(=O)[C@H](CC(=O)O)NC(=O)[C@H](CO)NC(=O)[C@H](Cc1ccccc1)NC(=O)[C@@H](NC(=O)[C@H](CCC(=O)O)NC(=O)[C@@H](N)CCC(N)=O)[C@@H](C)O)C(=O)N[C@@H](Cc1c[nH]c2ccccc12)C(=O)N[C@@H](CCCCN)C(=O)N[C@@H](CC(C)C)C(=O)N[C@@H](CC(C)C)C(=O)N[C@H](C(N)=O)[C@@H](C)O | 7.41 |
| CC(C)C[C@H](NC(=O)[C@H](CC(C)C)NC(=O)[C@H](CCCCN)NC(=O)[C@H](Cc1c[nH]c2ccccc12)NC(=O)[C@H](CC(C)C)NC(=O)[C@H](CC(=O)O)NC(=O)[C@H](CO)NC(=O)[C@H](Cc1ccccc1)NC(=O)[C@@H](NC(=O)[C@H](CCC(=O)O)NC(=O)[C@@H](N)CCC(N)=O)[C@@H](C)O)C(=O)N[C@@H](C)C(N)=O | 6.95 |
